- Tested Target: T1, hmm.hTfRC (REGN2431), human transferrin receptor extracellular domain with hexahistidine-myc-myc tag (human, UniProt P02786 89-760)
- T1 construct: Monomeric recombinant protein, 79210 g/mol; also called hTFR-mmh; His-myc-myc-hTFRC ecto
- T1 sequence (P02786 other isoform, or with tags, fused parts or gaps): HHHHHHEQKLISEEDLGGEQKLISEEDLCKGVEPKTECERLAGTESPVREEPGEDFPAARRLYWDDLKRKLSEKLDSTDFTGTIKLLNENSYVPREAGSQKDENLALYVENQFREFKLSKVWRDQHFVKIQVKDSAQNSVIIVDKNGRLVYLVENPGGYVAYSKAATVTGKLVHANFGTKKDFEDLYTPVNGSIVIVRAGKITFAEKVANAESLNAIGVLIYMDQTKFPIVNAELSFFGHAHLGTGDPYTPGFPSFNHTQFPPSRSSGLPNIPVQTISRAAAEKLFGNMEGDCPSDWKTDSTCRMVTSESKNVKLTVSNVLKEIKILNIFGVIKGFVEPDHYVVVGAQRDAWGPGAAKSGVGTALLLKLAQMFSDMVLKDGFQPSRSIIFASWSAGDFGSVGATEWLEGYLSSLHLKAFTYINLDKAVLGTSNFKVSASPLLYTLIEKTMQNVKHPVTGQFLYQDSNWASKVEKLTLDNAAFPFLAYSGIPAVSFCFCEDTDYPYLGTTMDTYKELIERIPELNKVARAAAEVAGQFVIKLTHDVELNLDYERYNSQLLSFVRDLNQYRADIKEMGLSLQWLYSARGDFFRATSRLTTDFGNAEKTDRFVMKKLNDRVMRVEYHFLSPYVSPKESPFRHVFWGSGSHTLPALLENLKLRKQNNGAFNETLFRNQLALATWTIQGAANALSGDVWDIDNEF
- Measurement Description: SPR (Biacore), mAb captured on anti-human Fc, 100 nM hTFR-mmh, 25 C
# reported 100 nM Ag Bound (RU); entries follow
Property Label: 100 nM Ag Bound (RU)

* 12799B (antibody, human IgG1, kappa, V domains shown, Tested as bivalent human IgG1 from CHO primary supernatant; also called H1H12799B; REGN17508) VH: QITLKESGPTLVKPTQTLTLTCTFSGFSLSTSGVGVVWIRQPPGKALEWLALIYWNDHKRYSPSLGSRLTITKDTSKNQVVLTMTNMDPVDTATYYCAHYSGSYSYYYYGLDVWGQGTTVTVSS VL: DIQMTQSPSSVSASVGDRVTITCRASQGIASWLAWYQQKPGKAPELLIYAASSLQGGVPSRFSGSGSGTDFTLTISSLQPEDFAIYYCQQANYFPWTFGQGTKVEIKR | 699 RU
* 69305 (antibody, human IgG1, kappa, V domains shown, Tested as bivalent human IgG1 from CHO primary supernatant) VH: QVQLVESGGGVVQPGRSLRLSCAASGFTFSSYGMHWVRQAPGKGLEWVAVIWYDGSNKYYADSVKGRFTISRDISKNTLYLQMNSLRAEDTAVYYCAGQLDLFFDYWGQGTLVTVSS VL: DIQMTQSPSSLSASVGDRVTITCRASQSIDRYLNWYRQKPGKAPKLLIYTTSSLQSGVPSRFSGSGSGTDFTLTLSSLQPEDFATYYCQQSYSPPLTFGGGTKVEIKR | 6 RU
* 12795B (antibody, human IgG1, kappa, V domains shown, Tested as bivalent human IgG1 from CHO primary supernatant) VH: EVQLVESGGGLVQPGGSLRLSCATSGFTFTSYDMKWVRQAPGLGLEWVSAISGSGGNTYYADSVKGRFTISRDNSRNTLYLQMNSLRAEDTAVYYCTRSHDFGAFDYFDYWGQGTLVTVSS VL: DIQMTQSPSSLSASVGDRVTITCRASQGIRDHFGWYQQKPGKAPKRLIYAASSLHSGVPSRFSGSGSGTEFTLTISSLQPEDFATYYCLQYDTYPLTFGGGTKVEIKR | 883 RU
